Data provenance: ChEMBL document CHEMBL2157989

test: Prodrug activation assessed as enzyme-mediated compound dephosphorylation in presence of canine intestine alkaline phosphatase P8639 at pH 7.4 by HPLC; conditions: dog, isolated protein
outcome-measure: Drug metabolism

>>> df
                           structure_smiles  assay_value
0  CSSC(C)(C)CCC(=O)Nc1ccc2[nH]c(C(=O)Nc3ccc4[nH]c(C(=O)N5C[C@@H](CCl)c6c5cc(OP(=O)(O)O)c5ccccc65)cc4c3)cc2c1       Active
1  O=C(CCS)Nc1ccc2[nH]c(C(=O)Nc3ccc4[nH]c(C(=O)N5C[C@@H](CCl)c6c5cc(OP(=O)(O)O)c5ccccc65)cc4c3)cc2c1       Active
2  CC(C)(S)CCC(=O)Nc1ccc2[nH]c(C(=O)Nc3ccc4[nH]c(C(=O)N5C[C@@H](CCl)c6c5cc(OP(=O)(O)O)c5ccccc65)cc4c3)cc2c1       Active
3  CSSCCC(=O)Nc1ccc2[nH]c(C(=O)Nc3ccc4[nH]c(C(=O)N5C[C@@H](CCl)c6c5cc(OP(=O)(O)O)c5ccccc65)cc4c3)cc2c1       Active

====

experiment: Cytotoxicity against human NAMALWA cells assessed as cell survival after 72 hrs by clonogenic assay; format: functional, cell-based; details: NAMALVA
Listing of entries alongside the reported IC50.
Report as a plain number; the unit pM is understood.

>>> df
                           structure_smiles  assay_value
0  O=C(Nc1ccc2[nH]c(C(=O)N3C[C@@H](CCl)c4c3cc(O)c3ccccc43)cc2c1)c1cc2cc([N+](=O)[O-])ccc2[nH]1            5
1  CSSC(C)(C)CCC(=O)Nc1ccc2[nH]c(C(=O)Nc3ccc4[nH]c(C(=O)N5C[C@@H](CCl)c6c5cc(OP(=O)(O)O)c5ccccc65)cc4c3)cc2c1         2800

Now consider the entry below.
QUERY: Report IC50 for CSSC(C)(C)CCC(=O)Nc1ccc2[nH]c(C(=O)Nc3ccc4[nH]c(C(=O)N5C[C@@H](CCl)c6c5cc(O)c5ccccc65)cc4c3)cc2c1
RESULT: 21

====

test: Solubility of the compound in 10% DMA and 90% buffer at pH 7 at 1.5 mg sonicated for 45 mins followed by centrifugation for 45 mins by UV/Vis spectroscopy; type: physicochemical
outcome-measure: solubility at 0.75 h (µM)

The examples below pair each entry with its known result.
>>> print(df.to_string())
                           structure_smiles  assay_value
0  CSSCCC(=O)Nc1ccc2[nH]c(C(=O)Nc3ccc4[nH]c(C(=O)N5C[C@@H](CCl)c6c5cc(OP(=O)(O)O)c5ccccc65)cc4c3)cc2c1         4700
1  CSSC(C)(C)CCC(=O)Nc1ccc2[nH]c(C(=O)Nc3ccc4[nH]c(C(=O)N5C[C@@H](CCl)c6c5cc(O)c5ccccc65)cc4c3)cc2c1            1

P. CSSC(C)(C)CCC(=O)Nc1ccc2[nH]c(C(=O)Nc3ccc4[nH]c(C(=O)N5C[C@@H](CCl)c6c5cc(OP(=O)(O)O)c5ccccc65)cc4c3)cc2c1
Q. CSSCCC(=O)Nc1ccc2[nH]c(C(=O)Nc3ccc4[nH]c(C(=O)N5C[C@@H](CCl)c6c5cc(O)c5ccccc65)cc4c3)cc2c1
QUERY: Input pair: P , Q . Output: entry with lower solubility at 0.75 h. State the label of the item chosen.
RESULT: Q
